Values from ChEMBL document CHEMBL3108696

target_desc: Broad substrate specificity ATP-binding cassette transporter ABCG2 (Homo sapiens, UniProt Q9UNQ0)
assay_text: Inhibition of human ABCG2 expressed in Sf9 insect cell membranes assessed as inhibition of quercetin-stimulated ATPase activity after 30 mins by colorimetric analysis in presence of sodium orthovanadate
Reported IC50 values follow for various molecules
Field format: number, assumed nM, no unit text.

1. COc1ccc2[nH]cc(CCN(C)Cc3cc(=O)c4c(OCc5ccc(Br)cc5)cccc4o3)c2c1
820

-- ask Need IC50, item O=C(NCc1cn(Cc2ccccc2)nn1)c1cc(=O)c2c(OCc3ccc(Br)cc3)cccc2o1
-- reply 430

-- ask Need IC50, item O=C(NCc1cn(CCc2c[nH]c3ccccc23)nn1)c1cc(=O)c2c(OCc3ccc(Br)cc3)cccc2o1
-- reply 250

-- ask Need IC50, item O=C(NCc1cn(Cc2ccc(Br)cc2)nn1)c1cc(=O)c2c(OCc3ccc(Br)cc3)cccc2o1
-- reply 930

* * *

target_desc: Broad substrate specificity ATP-binding cassette transporter ABCG2 (Homo sapiens, UniProt Q9UNQ0)
assay_text: Inhibition of ABCG2 (unknown origin)-mediated mitoxantrone efflux expressed in HEK293 cells after 30 mins by flow cytometric analysis
Assay type: cell-based
reported_endpoint: EC50

Illustrative cases are given below, each with its answer.
1) O=C(NCc1cn(CCc2c[nH]c3ccccc23)nn1)c1cc(=O)c2c(OCc3ccc(Br)cc3)cccc2o1
490 nM
2) CN(CCc1cn(C)c2ccccc12)C(=O)c1cc(=O)c2cc(OCc3ccc(Br)cc3)ccc2o1
2060 nM
3) Cn1cc(CCNC(=O)c2cc(=O)c3c(OCc4ccc(Br)cc4)cccc3o2)c2ccccc21
300 nM
4) CN(CCc1c[nH]c2ccccc12)C(=O)c1cc(=O)c2c(OCc3ccc(Br)cc3)cccc2o1
1110 nM

-- ask Need EC50, item CN(CCc1c[nH]c2ccccc12)Cc1cc(=O)c2c(OCc3ccc(Br)cc3)cccc2o1.Cl
-- reply 1770 nM

* * *

target_desc: ABCG2 (Homo sapiens, UniProt Q9UNQ0)
Sequence (Q9UNQ0 whole entry): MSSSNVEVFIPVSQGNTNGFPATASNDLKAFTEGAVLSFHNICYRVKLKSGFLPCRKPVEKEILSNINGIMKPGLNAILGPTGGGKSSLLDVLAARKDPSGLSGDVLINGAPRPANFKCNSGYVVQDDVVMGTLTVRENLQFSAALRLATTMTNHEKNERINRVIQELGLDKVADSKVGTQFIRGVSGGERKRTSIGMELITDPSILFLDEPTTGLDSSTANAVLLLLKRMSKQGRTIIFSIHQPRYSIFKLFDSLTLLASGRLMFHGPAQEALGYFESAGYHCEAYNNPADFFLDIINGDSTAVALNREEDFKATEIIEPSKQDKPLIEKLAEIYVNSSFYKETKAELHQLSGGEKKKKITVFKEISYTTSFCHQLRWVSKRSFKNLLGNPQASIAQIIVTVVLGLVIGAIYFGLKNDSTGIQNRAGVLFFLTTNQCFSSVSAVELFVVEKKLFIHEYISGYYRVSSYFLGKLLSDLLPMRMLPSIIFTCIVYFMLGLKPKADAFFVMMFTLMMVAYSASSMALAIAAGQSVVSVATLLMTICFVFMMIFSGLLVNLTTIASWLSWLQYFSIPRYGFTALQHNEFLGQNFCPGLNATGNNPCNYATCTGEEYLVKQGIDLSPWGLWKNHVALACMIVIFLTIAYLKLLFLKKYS
assay_text: Inhibition of ABCG2 (unknown origin)-mediated mitoxantrone efflux expressed in HEK293 cells at 5 to 10 uM after 30 mins by flow cytometric analysis relative to control
Type: cell-based
condition_label: HEK293 cells expressing ABCG2, probe mitoxantrone, read-out: Imax
reported_endpoint: Emax at 0.5 h (%)
Field format: number, assumed %, no unit text.

Illustrative cases are given below, each with its answer.
1. CN(CCc1c[nH]c2ccccc12)C(=O)c1cc(=O)c2cc(OCc3ccc(Br)cc3)ccc2o1
54
2. COc1ccc2[nH]cc(CCNC(=O)c3cc(=O)c4cc(OCc5ccc(Br)cc5)ccc4o3)c2c1
108
3. O=C(NCc1cn(Cc2ccc(Br)cc2)nn1)c1cc(=O)c2c(OCc3ccc(Br)cc3)cccc2o1
95

-- ask Give recorded Emax at 0.5 h with ABCG2 (Homo sapiens, UniProt Q9UNQ0) for the following molecule: COc1ccc2[nH]cc(CCN(C)Cc3cc(=O)c4c(OCc5ccc(Br)cc5)cccc4o3)c2c1
-- reply 75
